system: choroidal neovascularization; test: Choroidal neovascularization in rats (laser photocoagulation, FFA); format: in vivo; conditions: day 28 after administration, total light spot number was 69, 0.05 μM in the vitreous chamber once a day for 1 week, BN rats
Peptide text beside a SMILES is read from it. * marks the point of attachment. X58 = O=C1C=CC(=O)N1c1cccc(CCCCCCCCCCCC(=O)*)c1; X74 = O=C1C=CC(=O)N1c1cccc(CCCCCCCCCCC(=O)*)c1; X84 = O=C1C=CC(=O)N1c1ccccc1CCCCCCCCCCCCC(=O)*; X64 = O=C1C=CC(=O)N1c1cccc(CCCCCCCCCC(=O)*)c1; X68 = O=C1C=CC(=O)N1c1ccccc1CCCCCCCCCCCC(=O)*; X59 = O=C1C=CC(=O)N1c1cccc(CCCCCCCCC(=O)*)c1; X54 = O=C1C=CC(=O)N1c1cccc(CCCCCCC(=O)*)c1; X55 = O=C1C=CC(=O)N1c1ccccc1CCCCCCCCC(=O)*; X71 = O=C1C=CC(=O)N1c1cccc(CCCCCC(=O)*)c1; X46 = O=C1C=CC(=O)N1c1cccc(CCCCC(=O)*)c1; X79 = O=C1C=CC(=O)N1c1cccc(CCC(=O)*)c1
assay-readout: CNV Incidence (%)

- compound: "C[C@H](NC(=O)CNC(=O)[C@H](CCCNC(=N)N)NC(=O)CCc1cccc(N2C(=O)C=CC2=O)c1)C(=O)N[C@@H](CC(=O)O)C(=O)N[C@@H](CCCNC(=N)N)C(=O)N[C@@H](C)C(=O)NCC(=O)NCC(=O)NCC(=O)NCC(=O)N[C@@H](CCCNC(=N)N)C(=O)NCC(=O)N[C@@H](CC(=O)O)C(=O)O [X26] (X79-RGADRAGGGGRGD-OH)"
  target-or-system: "choroidal neovascularization"
  assay-readout: "CNV Incidence (%)"
  meas-value: 43.48
- compound: "C[C@H](NC(=O)CNC(=O)[C@H](CCCNC(=N)N)NC(=O)CCCCc1cccc(N2C(=O)C=CC2=O)c1)C(=O)N[C@@H](CC(=O)O)C(=O)N[C@@H](CCCNC(=N)N)C(=O)N[C@@H](C)C(=O)NCC(=O)NCC(=O)NCC(=O)NCC(=O)N[C@@H](CCCNC(=N)N)C(=O)NCC(=O)N[C@@H](CC(=O)O)C(=O)O [X28] (X46-RGADRAGGGGRGD-OH)"
  target-or-system: "choroidal neovascularization"
  assay-readout: "CNV Incidence (%)"
  meas-value: 40.58
- compound: "C[C@H](NC(=O)CNC(=O)[C@H](CCCNC(=N)N)NC(=O)CCCCCCCCc1cccc(N2C(=O)C=CC2=O)c1)C(=O)N[C@@H](CC(=O)O)C(=O)N[C@@H](CCCNC(=N)N)C(=O)N[C@@H](C)C(=O)NCC(=O)NCC(=O)NCC(=O)NCC(=O)N[C@@H](CCCNC(=N)N)C(=O)NCC(=O)N[C@@H](CC(=O)O)C(=O)O [X32] (X59-RGADRAGGGGRGD-OH)"
  target-or-system: "choroidal neovascularization"
  assay-readout: "CNV Incidence (%)"
  meas-value: 42.03
- compound: "C[C@H](NC(=O)CNC(=O)[C@H](CCCNC(=N)N)NC(=O)CCCCCc1cccc(N2C(=O)C=CC2=O)c1)C(=O)N[C@@H](CC(=O)O)C(=O)N[C@@H](CCCNC(=N)N)C(=O)N[C@@H](C)C(=O)NCC(=O)NCC(=O)NCC(=O)NCC(=O)N[C@@H](CCCNC(=N)N)C(=O)NCC(=O)N[C@@H](CC(=O)O)C(=O)O [X29] (X71-RGADRAGGGGRGD-OH)"
  target-or-system: "choroidal neovascularization"
  assay-readout: "CNV Incidence (%)"
  meas-value: 39.13
- compound: "C[C@H](NC(=O)CNC(=O)[C@H](CCCNC(=N)N)NC(=O)CCCCCCCCCCCCc1ccccc1N1C(=O)C=CC1=O)C(=O)N[C@@H](CC(=O)O)C(=O)N[C@@H](CCCNC(=N)N)C(=O)N[C@@H](C)C(=O)NCC(=O)NCC(=O)NCC(=O)NCC(=O)N[C@@H](CCCNC(=N)N)C(=O)NCC(=O)N[C@@H](CC(=O)O)C(=O)O [X24] (X84-RGADRAGGGGRGD-OH)"
  target-or-system: "choroidal neovascularization"
  assay-readout: "CNV Incidence (%)"
  meas-value: 44.93
- compound: "C[C@H](NC(=O)CNC(=O)[C@H](CCCNC(=N)N)NC(=O)CCCCCCCCCCCc1cccc(N2C(=O)C=CC2=O)c1)C(=O)N[C@@H](CC(=O)O)C(=O)N[C@@H](CCCNC(=N)N)C(=O)N[C@@H](C)C(=O)NCC(=O)NCC(=O)NCC(=O)NCC(=O)N[C@@H](CCCNC(=N)N)C(=O)NCC(=O)N[C@@H](CC(=O)O)C(=O)O [X35] (X58-RGADRAGGGGRGD-OH)"
  target-or-system: "choroidal neovascularization"
  assay-readout: "CNV Incidence (%)"
  meas-value: 44.93
- compound: "C[C@H](NC(=O)CNC(=O)[C@H](CCCNC(=N)N)NC(=O)CCCCCCCCCCCc1ccccc1N1C(=O)C=CC1=O)C(=O)N[C@@H](CC(=O)O)C(=O)N[C@@H](CCCNC(=N)N)C(=O)N[C@@H](C)C(=O)NCC(=O)NCC(=O)NCC(=O)NCC(=O)N[C@@H](CCCNC(=N)N)C(=O)NCC(=O)N[C@@H](CC(=O)O)C(=O)O [X23] (X68-RGADRAGGGGRGD-OH)"
  target-or-system: "choroidal neovascularization"
  assay-readout: "CNV Incidence (%)"
  meas-value: 37.68
- compound: "C[C@H](NC(=O)CNC(=O)[C@H](CCCNC(=N)N)NC(=O)CCCCCCCCCc1cccc(N2C(=O)C=CC2=O)c1)C(=O)N[C@@H](CC(=O)O)C(=O)N[C@@H](CCCNC(=N)N)C(=O)N[C@@H](C)C(=O)NCC(=O)NCC(=O)NCC(=O)NCC(=O)N[C@@H](CCCNC(=N)N)C(=O)NCC(=O)N[C@@H](CC(=O)O)C(=O)O [X33] (X64-RGADRAGGGGRGD-OH)"
  target-or-system: "choroidal neovascularization"
  assay-readout: "CNV Incidence (%)"
  meas-value: 37.68
- compound: "C[C@H](NC(=O)CNC(=O)[C@H](CCCNC(=N)N)NC(=O)CCCCCCc1cccc(N2C(=O)C=CC2=O)c1)C(=O)N[C@@H](CC(=O)O)C(=O)N[C@@H](CCCNC(=N)N)C(=O)N[C@@H](C)C(=O)NCC(=O)NCC(=O)NCC(=O)NCC(=O)N[C@@H](CCCNC(=N)N)C(=O)NCC(=O)N[C@@H](CC(=O)O)C(=O)O [X30] (X54-RGADRAGGGGRGD-OH)"
  target-or-system: "choroidal neovascularization"
  assay-readout: "CNV Incidence (%)"
  meas-value: 40.58
- compound: "C[C@H](NC(=O)CNC(=O)[C@H](CCCNC(=N)N)NC(=O)CCCCCCCCCCc1cccc(N2C(=O)C=CC2=O)c1)C(=O)N[C@@H](CC(=O)O)C(=O)N[C@@H](CCCNC(=N)N)C(=O)N[C@@H](C)C(=O)NCC(=O)NCC(=O)NCC(=O)NCC(=O)N[C@@H](CCCNC(=N)N)C(=O)NCC(=O)N[C@@H](CC(=O)O)C(=O)O [X34] (X74-RGADRAGGGGRGD-OH)"
  target-or-system: "choroidal neovascularization"
  assay-readout: "CNV Incidence (%)"
  meas-value: 42.03
- compound: "C[C@H](NC(=O)CNC(=O)[C@H](CCCNC(=N)N)NC(=O)CCCCCCCCc1ccccc1N1C(=O)C=CC1=O)C(=O)N[C@@H](CC(=O)O)C(=O)N[C@@H](CCCNC(=N)N)C(=O)N[C@@H](C)C(=O)NCC(=O)NCC(=O)NCC(=O)NCC(=O)N[C@@H](CCCNC(=N)N)C(=O)NCC(=O)N[C@@H](CC(=O)O)C(=O)O [X20] (X55-RGADRAGGGGRGD-OH)"
  target-or-system: "choroidal neovascularization"
  assay-readout: "CNV Incidence (%)"
  meas-value: 39.13
